experiment: Nuclear factor erythroid 2-related factor 2/antioxidant responsive element (Nrf2/ARE) small molecule agonists: qHTS cell viability counter screen in human keratinocytes (AID 1919968); settings: KeratinoSens HaCaT ARE cells viability, CellTiter-Fluor, 24 h; series mostly up to 92.4 µM; also: nearly all actives have a fitted effect of over 55% in size
Results filed as inconclusive are left out. Activity calls are given as the source filed them. Calls follow the shape of the dose curve; as a rule, active = well fitted cell-killing curve with a large enough effect in the repeat runs; inconclusive = weak or mixed curves, or effect the other way; inactive = flat fitted curve, though single readings scatter.
Respond with a class label; see true = active, false = inactive

Known results for compounds:
• CN=C(NC#N)Nc1ccc(C2=NNC(=O)CC2C)cc1 (centres undefined) = false
• COc1cc2nc(N3CCN(C(=O)C4CCCO4)CC3)nc(N)c2cc1OC (centres undefined) = false
• O=C(O)C(=O)Cc1c[nH]c2ccccc12 = false
• C=COCC1CCC(CO)CC1 (centres undefined) = false
• Oc1ccc2c(c1)CCC2 = false

# input Short answer needed: outcome of this test for CCCCCCCCC(C)=O ?
# output false

# input Name the outcome recorded for CCN(CC)c1ccc2c(-c3ccc(S(=O)(=O)O)cc3S(=O)(=O)[O-])c3ccc(=[N+](CC)CC)cc-3oc2c1 in the assay.
# output true

# input Call for entry c1ccc(CCCc2ccccn2)cc1 :
# output false

====

assay: p53 small molecule agonists, cell-based qHTS assay with rat liver microsomes: qHTS cell viability counter screen (AID 1963580); conditions: p53RE-bla HCT-116 + rat microsomes, ATP viability, 16 h; series mostly up to 66 µM; also: nearly all actives have a fitted effect of over 45% in size
Records with an inconclusive call do not appear. Activity calls are given as the source filed them. The call rests on the fitted dose curve.
VALUE_KIND: activity change, negative = cytotoxicity

* CC[N+]1(CC)CCC(=C(c2ccccc2)c2ccccc2)C1C (centres undefined) | inactive
* CC(C)=CCC1C(=O)N(c2ccccc2)N(c2ccccc2)C1=O | inactive
* C[C@]1(Cn2ccnn2)[C@H](C(=O)O)N2C(=O)C[C@H]2S1(=O)=O | inactive
* CCOC(=O)CCCCCCCCC(=O)OCC | inactive
* CC1=CP(=O)(c2ccccc2)CC1 (centres undefined) | inactive
* CN(C(=O)CCCOc1ccc2[nH]c(=O)ccc2c1)C1CCCCC1 | inactive
* Oc1ccc(C2CNCCc3c2cc(O)c(O)c3Cl)cc1 (centres undefined) | inactive
* CC(C)Cc1nccs1 | inactive
* C=C1C[C@@]23CC[C@H]4[C@@](C)(CCC[C@@]4(C)C(=O)O[C@@H]4O[C@H](CO)[C@@H](O)[C@H](O)[C@H]4O)[C@@H]2CC[C@]1(O[C@@H]1O[C@H](CO)[C@@H](O)[C@H](O[C@@H]2O[C@H](CO)[C@@H](O)[C@H](O)[C@H]2O)[C@H]1O[C@@H]1O[C@H](CO)[C@@H](O)[C@H](O)[C@H]1O)C3 | inactive
* CCOC(=O)c1ccc(I)cc1 | inactive

# input Identify the reported activity change, negative = cytotoxicity for the following entry. CCCCCCCCCCCCCCCCC(=O)O
# output inactive

# input Fill in reported activity change, negative = cytotoxicity for this entry: COC(=O)[C@H]1[C@H]2C[C@@H]3c4[nH]c5cc(OC)ccc5c4CCN3C[C@H]2C[C@@H](OC(=O)COc2ccc(OC)cc2)[C@@H]1OC
# output inactive

# input Fill in activity change, negative = cytotoxicity for record CCCCc1nc(Cl)c(CO)n1Cc1ccc(-c2ccccc2-c2nn[nH]n2)cc1
# output inactive

# input Provide one value: measured activity change, negative = cytotoxicity of O=C(OCC(COC(=O)c1ccccc1)(COC(=O)c1ccccc1)COC(=O)c1ccccc1)c1ccccc1
# output inactive

====

assay: cAMP Responsive Elements (CRE) small molecule antagonists, cell-based qHTS assay (AID 1963591); settings: CRE-bla HEK293T, beta-lactamase FRET ratio; series mostly up to 92.4 µM
Inconclusive results are not listed. Activity calls are given as the source filed them. Calls come from the whole dose curve; as a rule, active = well fitted inhibition curve with a large enough effect in the signal ratio in the repeat runs (not every such curve was filed as active); inconclusive = weak or mixed curves, or effect the other way; inactive = flat fitted curve, though single readings scatter; the % refers to the signal ratio.
VALUE_KIND: activity change, negative = inhibition

Worked cases, answers included:
* O=C1OC(=O)C2C3C=CC(C3)C12 (stereo not drawn) | inactive
* CCOC(=O)Oc1ccc(CCNC(=O)[C@H](CCSC)NC(C)=O)cc1OC(=O)OCC | inactive
* O=C(O)CCCCCCC(=O)O | inactive
* O=C1OC(=O)C2CCCCC12 (stereo not drawn) | inactive
* C[C@@H](CN1CC(=O)NC(=O)C1)N1CC(=O)NC(=O)C1 | inactive
* OC[C@@H](O)C(O)[C@@H](O)CO (stereo partly drawn) | inactive
* Cc1nccn1CC1CCc2c(c3ccccc3n2C)C1=O (stereo not drawn) | inactive
* CC1=C(/C=C/C(C)=C/C=C/C(C)=C\C(=O)O)C(C)(C)CCC1 | inactive
* COc1cc(OC)cc(OC)c1 | inactive
* COC(=O)CC#N | inactive

# input Please report activity change, negative = inhibition for the following molecule: CC1COc2c(N3CCN(C)CC3)c(F)cc3c(=O)c(C(=O)O)cn1c23 (stereo not drawn)
# output inactive

# input // fetch activity change, negative = inhibition given entry O=C1c2ccccc2S(=O)(=O)N1CCCCN1CCN(c2ncccn2)CC1
# output inactive

# input Could you please provide reported activity change, negative = inhibition for O=C(c1ccccc1)c1ccc(Cl)cc1 ? Thanks!
# output inactive

====

target: Muscarinic acetylcholine receptor M1 (Homo sapiens); assay: Cholinergic receptor muscarinic 1 (CHRM1) small molecule antagonists, cell-based qHTS assay (AID 1963588); details: CHRM1-CHO antagonist mode, calcium flux fluorescence; series mostly up to 61.5 µM; also: nearly all actives have a fitted effect of over 40% in size
Results filed as inconclusive are left out. Activity calls are given as the source filed them. The call rests on the fitted dose curve.
Could you please pick one outcome from this set? active, inactive

* C=CC(=O)OCC(CO)(COCC(COC(=O)C=C)(COC(=O)C=C)COC(=O)C=C)COC(=O)C=C | inactive

Now for a further compound.
# input Could you kindly confirm the outcome this assay logged for CCc1ccc(CC)cc1 ?
# output inactive

====

assay: Nuclear factor erythroid 2-related factor 2/antioxidant responsive element (Nrf2/ARE) small molecule agonists: qHTS cell viability counter screen in human keratinocytes (AID 1919968); settings: KeratinoSens HaCaT ARE cells viability, CellTiter-Fluor, 24 h; series mostly up to 92.4 µM; also: nearly all actives have a fitted effect of over 55% in size
Records with an inconclusive call do not appear. The source made the active and inactive calls. Calls come from the whole dose curve; as a rule, active = well fitted cell-killing curve with a large enough effect in the repeat runs; inconclusive = weak or mixed curves, or effect the other way; inactive = flat fitted curve, though single readings scatter.
Please state which outcome applies, choosing from active, inactive

- Cc1c(C)c2c(c(C)c1O)CC[C@@](C)(CCC[C@H](C)CCC[C@H](C)CCCC(C)C)O2: inactive
- Nc1ccc(C(=O)NCC(=O)O)cc1: inactive

# input Please share the test call associated with CCCCCCCC(=O)Oc1c(Br)cc(C#N)cc1Br .
# output inactive

# input Recorded test outcome, item Cc1nc2ccccc2n1Cc1ccc(Cl)cc1
# output active

# input Could you check what this test reported for O=[N+]([O-])c1cc(Cl)c(Cl)c(Cl)c1Cl ?
# output inactive

====

molecular target: Muscarinic acetylcholine receptor M1 (Homo sapiens) (UniProt P11229); experiment: Cholinergic receptor muscarinic 1 (CHRM1) small molecule agonists, cell-based qHTS assay (AID 1963589); conditions: CHRM1-CHO cells, agonist mode, calcium flux fluorescence; series mostly up to 76.8 µM; also: nearly all actives have a fitted effect of over 35% in size
Sequence (P11229 whole entry, looked up): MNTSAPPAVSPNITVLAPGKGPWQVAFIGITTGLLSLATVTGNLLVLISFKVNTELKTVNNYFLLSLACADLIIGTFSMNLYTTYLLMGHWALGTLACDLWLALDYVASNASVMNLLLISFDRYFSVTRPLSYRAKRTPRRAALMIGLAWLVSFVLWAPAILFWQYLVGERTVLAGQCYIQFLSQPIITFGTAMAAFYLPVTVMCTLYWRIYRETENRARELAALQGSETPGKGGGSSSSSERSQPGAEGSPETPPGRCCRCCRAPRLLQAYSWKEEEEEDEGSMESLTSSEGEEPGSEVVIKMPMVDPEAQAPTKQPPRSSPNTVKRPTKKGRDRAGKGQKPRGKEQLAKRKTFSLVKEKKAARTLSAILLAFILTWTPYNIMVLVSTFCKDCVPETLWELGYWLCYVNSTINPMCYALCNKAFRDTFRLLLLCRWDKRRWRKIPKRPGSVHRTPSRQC
The source made the active and inactive calls. Calls follow the shape of the full dose curve.
VALUE_KIND: activation

The following molecules have reported results that may help.
- CCCS(=O)c1ccc2nc(NC(=O)OC)[nH]c2c1 (stereo unspecified): inactive
- Cc1cc(C)c(NC(=O)CN(CC(=O)O)CC(=O)O)c(C)c1Br: inactive
- Nc1ccc2cc(S(=O)(=O)O)ccc2c1: inactive
- CCO[Si](CC)(OCC)OCC: inactive

# input Entry C=CC(C)C#N (stereo unspecified) needs its activation filled in; supply it.
# output inactive

# input Provide measured activation value, entry: O=Cc1ccccc1[N+](=O)[O-]
# output inactive

# input For COc1ccc(NS(=O)(=O)c2ccc(N)cc2)nn1 , write its activation.
# output inactive

# input Identify measured activation associated with O=S1OCCO1
# output inactive

# input Report measured activation; entry is Cc1cn([C@@H]2O[C@H](CO)[C@@H](O)[C@@H]2F)c(=O)[nH]c1=O
# output inactive

# input Tell me measured activation for O=C(N[C@@H](Cc1ccccc1)[C@@H](O)C(=O)N1C[C@@H](O)[C@@H](O)C1)c1cc2cc(Cl)ccc2[nH]1 please.
# output inactive

# input Write down activation measured for item CCN(CC)C(C)=O
# output inactive

====

Biological target: Gonadotropin-releasing hormone receptor (Homo sapiens)
Test: Human gonadotropin-releasing hormone receptor (GnRHR) small molecule agonists, calcium flux assay in GnRHR-HEK293 cells (AID 1920063); also: nearly all actives have a fitted effect of over 35% in size
Settings: calcium flux fluorescence, agonist mode; series mostly up to 57.6 µM
Description: National Center for Advancing Translational Sciences [NCATS] Division of Preclinical Innovation [DPI] U.S. Environmental Protection Agency [EPA] National Institutes of Environmental Health Sciences [NIEHS] National Toxicology Program [NTP] U.S. Food and Drug Administration [FDA] […] GnRHR-HEK293 cells developed by Codex Corp contain human GnRHR reporter gene, which was stably integrated into HEK 293 cells. The compound activation can be detected by fluorescence intensity via calcium flux assay. […]
The source made the active and inactive calls. The call rests on the fitted dose curve.
VALUE_KIND: activity change

The examples below pair each entry with its known result.
• C=COCC1CCC(CO)CC1 (stereo unspecified) = inactive
• COCCCCCCCCOCCC[Si](C)(O[Si](C)(C)C)O[Si](C)(C)C = inactive
• CCN(CC)CCOc1ccc(C(O)(Cc2ccc(Cl)cc2)c2ccc(C)cc2)cc1 (stereo unspecified) = inactive
• N#CCc1ccccc1[N+](=O)[O-] = inactive
• COc1ccc2[nH]c(S(=O)Cc3ncc(C)c(OC)c3C)nc2n1 (stereo unspecified) = inactive

# input Lab note: record activity change of COc1cccc(O)c1 tested on Gonadotropin-releasing hormone receptor (Homo sapiens).
# output inactive

# input Supply activity change measured with Gonadotropin-releasing hormone receptor (Homo sapiens) for CC(C)(c1cc(Br)c(OCCO)c(Br)c1)c1cc(Br)c(OCCO)c(Br)c1 .
# output inactive

# input Find the measured activity change of Cc1cc(NC(=O)C2=C(O)c3ccccc3S(=O)(=O)N2C)no1 with Gonadotropin-releasing hormone receptor (Homo sapiens) as test system.
# output inactive
